Exercise: for every item that follows, state its recorded koff.
target: feline FcRn (FCN-F82W3, Acrobiosystems) (feline); experiment: SPR Carterra, IgG coupled, pH 6.0
Give the quantity in s⁻¹, number only.

# input binder: anti-NGF feline IgG1a, Fc variant S428L (antibody, part only; not given: Anti-NGF variable domains, not shown: another chain or arm of the molecule; small tags and cut ends) Fc: PPEMLGGPSIFIFPPKPKDTLSISRTPEVTCLVVDLGPDDSDVQITWFVDNTQVYTAKTSPREEQFNSTYRVVSVLPILHQDWLKGKEFKCKVNSKSLPSPIERTISKAKGQPHEPQVYVLPPAQEELSRNKVSVTCLIKSFHPPDIAVEWEITGQPEPENNYRTTPPQLDSDGTYFVYSKLSVDRSHWQRGNTYTCSVLHEALHSHHTQKSLTQSPGK ; wanted: its koff
0.0241

Query anti-NGF feline IgG1a, Fc variant S252R, L262Q (antibody, part only; not given: anti-NGF variable domains, light chain, not shown: another chain or arm of the molecule; small tags and cut ends) Fc: PPEMLGGPSIFIFPPKPKDTLRISRTPEVTCQVVDLGPDDSDVQITWFVDNTQVYTAKTSPREEQFNSTYRVVSVLPILHQDWLKGKEFKCKVNSKSLPSPIERTISKAKGQPHEPQVYVLPPAQEELSRNKVSVTCLIKSFHPPDIAVEWEITGQPEPENNYRTTPPQLDSDGTYFVYSKLSVDRSHWQRGNTYTCSVSHEALHSHHTQKSLTQSPGK next
0.00795

Every entry's value here was drawn from patent US20250304650A1.
